measurement_target: Angiopoietin-1 receptor (Homo sapiens) (UniProt Q02763)
Sequence (Q02763 whole entry): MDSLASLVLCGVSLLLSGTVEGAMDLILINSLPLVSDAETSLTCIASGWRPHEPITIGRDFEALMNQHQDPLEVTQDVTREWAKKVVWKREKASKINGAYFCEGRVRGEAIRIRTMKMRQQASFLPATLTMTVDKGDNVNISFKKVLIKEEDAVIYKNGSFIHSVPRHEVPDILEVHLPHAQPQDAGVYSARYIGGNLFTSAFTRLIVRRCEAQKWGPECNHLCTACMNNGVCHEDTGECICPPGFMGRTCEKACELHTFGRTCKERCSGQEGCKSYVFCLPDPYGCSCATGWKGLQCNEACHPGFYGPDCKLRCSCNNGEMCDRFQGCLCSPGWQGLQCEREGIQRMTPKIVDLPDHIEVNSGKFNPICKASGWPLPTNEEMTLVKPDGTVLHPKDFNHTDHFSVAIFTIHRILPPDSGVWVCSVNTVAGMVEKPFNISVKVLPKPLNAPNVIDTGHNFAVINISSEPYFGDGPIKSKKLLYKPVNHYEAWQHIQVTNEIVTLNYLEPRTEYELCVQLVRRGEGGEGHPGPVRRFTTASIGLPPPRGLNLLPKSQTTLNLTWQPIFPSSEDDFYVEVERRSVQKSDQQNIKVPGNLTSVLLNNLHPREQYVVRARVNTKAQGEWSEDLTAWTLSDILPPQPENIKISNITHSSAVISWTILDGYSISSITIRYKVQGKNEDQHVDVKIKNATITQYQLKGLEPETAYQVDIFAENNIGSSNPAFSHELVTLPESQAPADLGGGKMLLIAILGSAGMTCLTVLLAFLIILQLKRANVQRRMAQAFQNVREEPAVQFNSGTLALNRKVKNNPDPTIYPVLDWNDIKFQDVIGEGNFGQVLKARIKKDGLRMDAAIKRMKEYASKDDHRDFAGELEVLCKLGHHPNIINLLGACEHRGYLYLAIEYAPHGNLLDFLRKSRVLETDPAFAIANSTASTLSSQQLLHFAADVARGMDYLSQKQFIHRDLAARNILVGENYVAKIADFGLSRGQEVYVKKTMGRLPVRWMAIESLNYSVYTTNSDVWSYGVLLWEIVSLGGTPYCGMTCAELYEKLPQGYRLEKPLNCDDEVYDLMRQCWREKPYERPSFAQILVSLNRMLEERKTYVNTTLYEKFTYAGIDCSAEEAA
stated_conditions: at 0.1 µM
Description: GSK_PKIS: TIE2 mean inhibition at 0.1 uM [Nanosyn]
The compounds listed here are annotated with their inhibition.
measurement_type: inhibition (%)

INSERT INTO measurements (smiles_repr, measurement_type, measured_value) VALUES
  ('CCn1c(-c2nonc2N)nc2cncc(C(=O)N3CCNCC3)c21', 'inhibition', 6.61),
  ('COc1ccc(-c2ccncc2)cc1C(N)=O', 'inhibition', 5.23),
  ('CC(=O)Nc1cccc(C#Cc2cncnc2Nc2ccc(OCc3cccc(F)c3)c(Cl)c2)n1', 'inhibition', -1.08),
  ('Nc1nc(-c2ccccn2)c(-c2ccc3ncccc3n2)s1', 'inhibition', 2.07),
  ('CCCN1CCC(Oc2cc(Nc3nc(Nc4cccc(F)c4C(N)=O)c4cc[nH]c4n3)c(OC)cc2Cl)CC1', 'inhibition', 4.02),
  ('COc1ccc(-c2nn3ncccc3c2-c2ccnc(Nc3ccc(Cl)c(C(F)(F)F)c3)n2)cc1', 'inhibition', 4.94),
  ('COC(=O)Nc1nc2cc(Oc3ccc(NC(=O)Nc4cccc(C(=O)O)c4)cc3)ccc2[nH]1', 'inhibition', 1.97),
  ('Fc1cccc(COc2ccc(Nc3ncnc4sc(-c5cccs5)cc34)cc2Cl)c1', 'inhibition', 1.07),
  ('N#Cc1c(NC(=O)c2cccc3ccccc23)sc2c1CCCC2', 'inhibition', 2.34);

* * *

measurement_target: Receptor tyrosine-protein kinase erbB-2 (Homo sapiens)
stated_conditions: at 1 µM
Description: GSK_PKIS: ERBB2 mean inhibition at 1 uM [Nanosyn]
Listed below: inhibition values for each entry.
measurement_type: inhibition (%)

INSERT INTO assay_data (smiles_repr, measurement_type, unit_spec, measured_value) VALUES
  ('CC(C)=Cc1cccc2c1/C(=N/Nc1ccc(S(N)(=O)=O)cc1)C(=O)N2', 'inhibition', '%', 4.72),
  ('COC(=O)Nc1nc2cc(Oc3cccc(NC(=O)Nc4cc(C(F)(F)F)ccc4F)c3)ccc2[nH]1', 'inhibition', '%', -2.43),
  ('COC(=O)Nc1nc2cc(Oc3ccc(NC(=O)Nc4cccc(C(=O)O)c4)cc3)ccc2[nH]1', 'inhibition', '%', 3.5),
  ('CC(=O)Nc1cccc(C#Cc2cncnc2Nc2ccc(OCc3cccc(F)c3)c(Cl)c2)n1', 'inhibition', '%', 0.35),
  ('COc1ccc(-c2nn3ncccc3c2-c2ccnc(Nc3ccc(Cl)c(C(F)(F)F)c3)n2)cc1', 'inhibition', '%', 7.66),
  ('Cc1ccc(C(=O)NC2CCCCC2)cc1-c1ccc(C(=O)NCC2CC2)cc1', 'inhibition', '%', -2.24),
  ('NC(=O)c1cccc(Nc2nccc(Nc3cccc4[nH]ncc34)n2)c1', 'inhibition', '%', 2.08),
  ('CCn1c(-c2nonc2N)nc2cncc(C(=O)N3CCNCC3)c21', 'inhibition', '%', 2.97),
  ('O=C1NC(=O)C(c2ccc(Cl)cc2)=C1Nc1ccc(Cl)c(C(=O)O)c1', 'inhibition', '%', -3.13),
  ('COc1cc2ncn(-c3cc(O[C@@H](C)c4ccccc4Cl)c(C(N)=O)s3)c2cc1OC', 'inhibition', '%', 6.51);

* * *

measurement_target: Serine/threonine-protein kinase D1 (Homo sapiens) (UniProt Q15139);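 further: values given as mean inhibition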
Sequence (whole entry): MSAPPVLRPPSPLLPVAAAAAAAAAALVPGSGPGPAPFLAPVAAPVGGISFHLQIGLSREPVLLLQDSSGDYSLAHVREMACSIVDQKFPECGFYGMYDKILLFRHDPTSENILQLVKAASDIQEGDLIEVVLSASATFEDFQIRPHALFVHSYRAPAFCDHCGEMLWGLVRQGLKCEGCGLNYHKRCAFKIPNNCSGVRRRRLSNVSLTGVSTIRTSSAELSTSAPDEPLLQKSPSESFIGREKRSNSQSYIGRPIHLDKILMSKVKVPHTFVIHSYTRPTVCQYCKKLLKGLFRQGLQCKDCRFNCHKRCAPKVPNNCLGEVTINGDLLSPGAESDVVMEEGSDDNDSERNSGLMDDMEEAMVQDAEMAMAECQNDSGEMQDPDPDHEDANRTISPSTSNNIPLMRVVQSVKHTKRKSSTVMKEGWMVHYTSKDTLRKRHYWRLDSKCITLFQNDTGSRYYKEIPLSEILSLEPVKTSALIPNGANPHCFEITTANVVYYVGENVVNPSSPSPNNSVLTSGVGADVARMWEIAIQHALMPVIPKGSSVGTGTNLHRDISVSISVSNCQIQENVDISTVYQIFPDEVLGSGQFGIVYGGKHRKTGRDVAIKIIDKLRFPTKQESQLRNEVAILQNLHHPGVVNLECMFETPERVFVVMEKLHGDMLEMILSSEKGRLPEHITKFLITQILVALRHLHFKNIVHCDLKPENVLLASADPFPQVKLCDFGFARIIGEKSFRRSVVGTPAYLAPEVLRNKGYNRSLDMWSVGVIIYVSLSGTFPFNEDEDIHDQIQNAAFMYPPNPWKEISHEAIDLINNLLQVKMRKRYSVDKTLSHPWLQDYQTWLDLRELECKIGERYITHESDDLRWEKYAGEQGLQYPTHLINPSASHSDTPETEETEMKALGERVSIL
stated_conditions: at 0.1 µM
measurement_type: inhibition (%)

INSERT INTO results (compound, measurement_target, unit_spec, measured_value) VALUES
  ('COC(=O)Nc1nc2cc(Oc3cccc(NC(=O)Nc4cc(C(F)(F)F)ccc4F)c3)ccc2[nH]1', 'Serine/threonine-protein kinase D1 (Homo sapiens) (UniProt Q15139)', '%', 0.22),
  ('COc1cc(C=NNc2ncnc3c2cnn3-c2ccccc2)ccc1O', 'Serine/threonine-protein kinase D1 (Homo sapiens) (UniProt Q15139)', '%', 1.65),
  ('CCn1c(-c2nonc2N)nc2cncc(C(=O)N3CCNCC3)c21', 'Serine/threonine-protein kinase D1 (Homo sapiens) (UniProt Q15139)', '%', 5.23),
  ('NCc1ccc(-c2nc(-c3ccc(Cl)c(O)c3)c(-c3ccncc3)[nH]2)cc1', 'Serine/threonine-protein kinase D1 (Homo sapiens) (UniProt Q15139)', '%', 0.78),
  ('COc1cc2ncn(-c3cc(OCc4ccccc4Cl)c(C(N)=O)s3)c2cc1OC', 'Serine/threonine-protein kinase D1 (Homo sapiens) (UniProt Q15139)', '%', 0.01),
  ('Cc1ccc(C(=O)NC2CCCCC2)cc1-c1ccc(C(=O)NCC2CC2)cc1', 'Serine/threonine-protein kinase D1 (Homo sapiens) (UniProt Q15139)', '%', 1.97),
  ('COc1cc(C)c(NC(=O)CN(C)C)cc1Nc1nc(Nc2cccc(F)c2C(N)=O)c2cc[nH]c2n1', 'Serine/threonine-protein kinase D1 (Homo sapiens) (UniProt Q15139)', '%', 2.21),
  ('[O-][S+]1CCN(Cc2ccc(-c3ccc4ncnc(Nc5ccc(OCc6ccccc6)c(F)c5)c4c3)o2)CC1', 'Serine/threonine-protein kinase D1 (Homo sapiens) (UniProt Q15139)', '%', 2.32),
  ('Nc1nc(-c2ccc3c(c2)C(=Cc2cc(Br)c(O)c(Br)c2)C(=O)N3)cs1', 'Serine/threonine-protein kinase D1 (Homo sapiens) (UniProt Q15139)', '%', -1.69),
  ('NS(=O)(=O)c1cccc(-c2ccc3c(NC(=O)C4CC4)n[nH]c3c2)c1', 'Serine/threonine-protein kinase D1 (Homo sapiens) (UniProt Q15139)', '%', -0.83),
  ('NC(=O)c1ccc(-c2nc(-c3ccccn3)c(-c3ccc4c(c3)OCO4)[nH]2)cc1', 'Serine/threonine-protein kinase D1 (Homo sapiens) (UniProt Q15139)', '%', 2.47),
  ('NS(=O)(=O)c1ccc(N/N=C2\C(=O)Nc3ccc(C(=O)NCCc4c[nH]cn4)cc32)cc1', 'Serine/threonine-protein kinase D1 (Homo sapiens) (UniProt Q15139)', '%', 6.28),
  ('CCCN1CCC(Oc2cc(Nc3nc(Nc4cccc(F)c4C(N)=O)c4cc[nH]c4n3)c(OC)cc2Cl)CC1', 'Serine/threonine-protein kinase D1 (Homo sapiens) (UniProt Q15139)', '%', 0.11),
  ('CC1=C(C(=O)Nc2ccc3[nH]ncc3c2)C(c2ccc(Cl)c(Cl)c2)CC(=O)N1 (stereo not given)', 'Serine/threonine-protein kinase D1 (Homo sapiens) (UniProt Q15139)', '%', 0.89),
  ('COc1ccc(-c2ccncc2)cc1C(N)=O', 'Serine/threonine-protein kinase D1 (Homo sapiens) (UniProt Q15139)', '%', 5.51),
  ('COc1cc2ncn(-c3cc(O[C@H](C)c4ccccc4Cl)c(C(N)=O)s3)c2cc1OC', 'Serine/threonine-protein kinase D1 (Homo sapiens) (UniProt Q15139)', '%', 1.04),
  ('COC(=O)Nc1nc2cc(Oc3ccc(NC(=O)Nc4cccc(C(=O)O)c4)cc3)ccc2[nH]1', 'Serine/threonine-protein kinase D1 (Homo sapiens) (UniProt Q15139)', '%', -1.35),
  ('Cc1ccc(NC(=O)c2ccnc(N3CCCC3)c2)cc1-c1ccc(C(=O)NCC2CC2)cc1', 'Serine/threonine-protein kinase D1 (Homo sapiens) (UniProt Q15139)', '%', 3.07),
  ('O=C1NC(=O)C(c2cccc(Cl)c2)=C1Nc1ccc(O)c(Cl)c1', 'Serine/threonine-protein kinase D1 (Homo sapiens) (UniProt Q15139)', '%', 0.15),
  ('CNC(=O)c1cncc(/C=C/c2c(Cl)cccc2Cl)c1', 'Serine/threonine-protein kinase D1 (Homo sapiens) (UniProt Q15139)', '%', 2.34);
